System Under Test: 3',5'-cyclic-AMP phosphodiesterase 4A (Homo sapiens)
Sequence (P27815 whole entry): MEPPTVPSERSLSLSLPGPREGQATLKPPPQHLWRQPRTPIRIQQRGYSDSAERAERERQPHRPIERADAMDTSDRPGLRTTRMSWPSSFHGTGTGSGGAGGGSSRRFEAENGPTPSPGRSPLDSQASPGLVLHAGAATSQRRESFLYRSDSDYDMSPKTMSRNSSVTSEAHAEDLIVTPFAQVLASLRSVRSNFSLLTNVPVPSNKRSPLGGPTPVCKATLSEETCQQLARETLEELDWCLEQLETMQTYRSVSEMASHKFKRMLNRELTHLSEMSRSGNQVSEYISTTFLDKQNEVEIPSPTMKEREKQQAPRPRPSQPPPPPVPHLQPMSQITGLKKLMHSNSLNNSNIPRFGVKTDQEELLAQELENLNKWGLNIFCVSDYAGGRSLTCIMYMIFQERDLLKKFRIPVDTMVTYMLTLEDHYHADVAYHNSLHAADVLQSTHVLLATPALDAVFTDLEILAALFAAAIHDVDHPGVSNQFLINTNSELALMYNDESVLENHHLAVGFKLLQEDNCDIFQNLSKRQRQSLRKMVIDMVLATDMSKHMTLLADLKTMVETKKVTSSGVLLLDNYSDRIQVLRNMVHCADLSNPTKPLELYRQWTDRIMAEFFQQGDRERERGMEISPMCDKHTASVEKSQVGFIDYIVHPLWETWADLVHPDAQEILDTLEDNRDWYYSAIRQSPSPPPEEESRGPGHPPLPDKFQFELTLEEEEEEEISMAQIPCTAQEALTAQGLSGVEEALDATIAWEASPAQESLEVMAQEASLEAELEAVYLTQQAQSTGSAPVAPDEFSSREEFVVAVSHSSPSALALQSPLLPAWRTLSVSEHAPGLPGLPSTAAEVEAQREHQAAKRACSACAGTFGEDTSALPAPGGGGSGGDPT
Measured Parameter: Ki (nM)
Give the value, in units of nM, as a plain number.

**Query** What value of Ki has been reported for the following molecule? `[O-][n+]1cccc(C[C@@H](c2ccc(OC(F)F)c(OC3CC3)c2)c2cnc(C(O)(C(F)(F)F)C(F)(F)F)s2)c1`
**Result** 0.43

---

System Under Test: 3',5'-cyclic-AMP phosphodiesterase 4C (Homo sapiens, UniProt Q08493)
Sequence (Q08493 whole entry): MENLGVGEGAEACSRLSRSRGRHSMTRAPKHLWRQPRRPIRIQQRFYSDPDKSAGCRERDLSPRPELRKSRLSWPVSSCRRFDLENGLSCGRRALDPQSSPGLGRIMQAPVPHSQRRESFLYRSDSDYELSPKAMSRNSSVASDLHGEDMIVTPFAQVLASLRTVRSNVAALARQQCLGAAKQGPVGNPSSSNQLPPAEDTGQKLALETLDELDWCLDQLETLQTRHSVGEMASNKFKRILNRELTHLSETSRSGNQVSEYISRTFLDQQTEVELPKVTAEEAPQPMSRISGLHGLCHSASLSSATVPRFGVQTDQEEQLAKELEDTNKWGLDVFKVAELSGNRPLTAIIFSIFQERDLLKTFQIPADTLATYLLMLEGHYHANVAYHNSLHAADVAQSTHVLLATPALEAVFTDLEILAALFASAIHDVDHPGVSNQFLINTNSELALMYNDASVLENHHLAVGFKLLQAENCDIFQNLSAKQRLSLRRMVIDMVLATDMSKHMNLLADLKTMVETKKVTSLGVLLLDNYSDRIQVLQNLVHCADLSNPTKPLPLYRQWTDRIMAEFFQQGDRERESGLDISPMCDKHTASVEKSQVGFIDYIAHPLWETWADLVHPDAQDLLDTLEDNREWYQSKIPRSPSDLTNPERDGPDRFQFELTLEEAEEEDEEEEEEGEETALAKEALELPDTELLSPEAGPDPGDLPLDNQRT
Measured Parameter: IC50 (nM)
Give the value, in units of nM, as a plain number.

**Query** What value of IC50 has been reported for the following compound? `[O-][n+]1cccc(C[C@H](c2ccc(OC(F)F)c(OC3CC3)c2)c2cnc(C(O)(C(F)(F)F)C(F)(F)F)s2)c1`
**Result** 135
